# target_or_test_system: JAK3 (catalytic domain, His-tag) (Homo sapiens, UniProt P52333)
# Construct: All four purified enzymes contain only the catalytic domain; His (N); purchased Carna Biosciences, Inc; host or cells: baculovirus expression system
# Sequence (P52333 822-1111 limits assumed): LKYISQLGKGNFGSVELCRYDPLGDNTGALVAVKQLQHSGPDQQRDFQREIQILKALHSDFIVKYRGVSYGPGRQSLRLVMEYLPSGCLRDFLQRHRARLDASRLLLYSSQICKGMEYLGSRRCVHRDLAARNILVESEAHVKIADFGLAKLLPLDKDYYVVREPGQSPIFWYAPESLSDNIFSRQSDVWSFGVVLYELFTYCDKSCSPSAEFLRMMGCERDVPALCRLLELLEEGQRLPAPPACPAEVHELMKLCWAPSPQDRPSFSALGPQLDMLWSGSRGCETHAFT
# procedure_details: JAK kinase assay (HTRF, phosphorylation of TK substrate-biotin), JAK3
# Type: biochemical
# condition_notes: HTRF assay, ATP at Km (2 μM); read-out: JAK3 kinase inhibitory activity (EC50 indicator)
pEC50: −log10 of the molar value.
Readings of pEC50 for the listed compounds

- compound: "CCS(=O)(=O)Nc1ccc(C(=O)N2CCN(c3ncnc4[nH]ccc34)CC23CC3)cc1"
  pEC50: "> 7.00"
- compound: "COCCS(=O)(=O)c1ccc(C(=O)N2CCN(c3ncnc4[nH]ccc34)CC23CC3)cc1"
  pEC50: "6.30 to 7.00"
- compound: "O=C(C1CCc2ccccc21)N1CCN(c2ncnc3[nH]ccc23)CC12CC2 (centres unmarked)"
  pEC50: "6.30 to 7.00"

Okay, next one:
Entry `Cc1c[nH]c2ncnc(N3CCN(C(=O)Cc4cccc(CC#N)c4)C4(CC4)C3)c12` ; pEC50 = < 6.30

---

Readings of pEC50 for the listed compounds
# target_or_test_system: JAK3 (catalytic domain, His-tag) (Homo sapiens, UniProt P52333)
# Construct: All four purified enzymes contain only the catalytic domain; His (N); purchased Carna Biosciences, Inc; host or cells: baculovirus expression system
# procedure_details: JAK kinase assay (HTRF, phosphorylation of TK substrate-biotin), JAK3
# Type: biochemical
# condition_notes: HTRF assay, ATP at Km (2 μM); read-out: JAK3 kinase inhibitory activity (EC50 indicator)
pEC50: −log10 of the molar value.

Take a look at these entries with their results.
- substance_smiles: "CNS(=O)(=O)c1csc(C(=O)N2CCN(c3ncnc4[nH]ccc34)CC23CC3)c1"
  pEC50: "> 7.00"
- substance_smiles: "COc1cc(C(=O)N2CCN(c3ncnc4[nH]ccc34)CC23CC3)ccc1S(N)(=O)=O"
  pEC50: "> 7.00"
- substance_smiles: "CC(=O)Nc1ccc(C(=O)N2[C@@H]3CC[C@@H]2CN(c2ncnc4[nH]ccc24)C3)cc1"
  pEC50: "6.30 to 7.00"
- substance_smiles: "N#Cc1ccccc1CC(=O)N1[C@@H]2CC[C@@H]1CN(c1ncnc3[nH]ccc13)C2"
  pEC50: "6.30 to 7.00"
- substance_smiles: "COc1cc(C(=O)N2[C@@H]3CC[C@H]2CN(c2ncnc4[nH]ccc24)C3)ccc1S(N)(=O)=O"
  pEC50: "> 7.00"
- substance_smiles: "N#Cc1ccc2c(C(=O)N3CCN(c4ncnc5[nH]ccc45)CC34CC4)n[nH]c2c1"
  pEC50: "> 7.00"

Okay, next one:
Entry `O=C(c1ccccc1)N1[C@@H]2CC[C@@H]1CN(c1ncnc3[nH]ccc13)C2` ; pEC50 = 6.30 to 7.00

---

# target_or_test_system: TYK2 (aa 871-1187, catalytic domain, GST-tag) (Homo sapiens, UniProt P29597)
# Construct: JAK1 (aa 850-1154) and TYK2 (aa 871-1187) are expressed with an N-terminally fused GST-tag; GST (N); purchased Carna Biosciences, Inc; host or cells: baculovirus expression system
# Sequence (P29597 871-1187): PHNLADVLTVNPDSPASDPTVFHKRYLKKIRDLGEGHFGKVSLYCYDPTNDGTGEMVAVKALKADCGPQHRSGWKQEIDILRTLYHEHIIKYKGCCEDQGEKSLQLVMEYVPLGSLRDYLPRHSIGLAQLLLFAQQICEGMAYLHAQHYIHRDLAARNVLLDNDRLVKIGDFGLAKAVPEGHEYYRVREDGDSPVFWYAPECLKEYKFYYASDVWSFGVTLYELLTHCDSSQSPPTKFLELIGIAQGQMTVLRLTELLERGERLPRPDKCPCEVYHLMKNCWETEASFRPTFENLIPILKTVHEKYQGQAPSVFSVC
# procedure_details: JAK kinase assay (HTRF, phosphorylation of TK substrate-biotin), TYK2
# Assay type: biochemical
# condition_notes: ATP at Km (13 μM); read-out: TYK2 kinase inhibitory activity (EC50 indicator)
endpoint_name: EC50

Take a look at these entries with their results.
- substance_smiles: "O=C(CCc1ccccc1)N1CCN(c2ncnc3[nH]ccc23)CC12CC2"
  EC50: "> 500 nM"
- substance_smiles: "CCOC(=O)N1[C@@H]2CC[C@H]1CN(c1ncnc3[nH]ccc13)C2"
  EC50: "100 to 500 nM"
- substance_smiles: "Cc1c(C(=O)N2CCN(c3ncnc4[nH]ccc34)CC23CC3)[nH]c2ccc(F)cc12"
  EC50: "> 500 nM"

Okay, next one:
Entry `O=C(c1ccc(=O)[nH]c1)N1CCN(c2ncnc3[nH]ccc23)CC12CC2` ; EC50 = > 500 nM
